Molecular target: UniProt P04585
Assay: HIV IN strand transfer
Format: biochemical, HIV-1
Details: INST IC50, tested 0.13-100 µM
This listing pairs compounds with measured IC50.
property.name: IC50

compound: COc1cccc(OC)c1-c1cccc(Nc2cc(=O)n(O)c(=O)[nH]2)c1 [11m]
property.name: IC50
measured.result: 1200 to 1300 nM

compound: O=c1cc(Nc2cccc(-c3ccc(F)cc3)c2)[nH]c(=O)n1O [11o]
property.name: IC50
measured.result: > 100000 nM

compound: COc1ccc(-c2cccc(Nc3cc(=O)n(O)c(=O)[nH]3)c2)cc1 [11j]
property.name: IC50
measured.result: > 100000 nM

compound: COc1ccc(-c2cccc(Nc3cc(=O)n(O)c(=O)[nH]3)c2)c(OC)c1 [11l]
property.name: IC50
measured.result: 1200 to 1300 nM
